# tgt: HDAC1 (Homo sapiens)
# Sequence (Q13547 whole entry): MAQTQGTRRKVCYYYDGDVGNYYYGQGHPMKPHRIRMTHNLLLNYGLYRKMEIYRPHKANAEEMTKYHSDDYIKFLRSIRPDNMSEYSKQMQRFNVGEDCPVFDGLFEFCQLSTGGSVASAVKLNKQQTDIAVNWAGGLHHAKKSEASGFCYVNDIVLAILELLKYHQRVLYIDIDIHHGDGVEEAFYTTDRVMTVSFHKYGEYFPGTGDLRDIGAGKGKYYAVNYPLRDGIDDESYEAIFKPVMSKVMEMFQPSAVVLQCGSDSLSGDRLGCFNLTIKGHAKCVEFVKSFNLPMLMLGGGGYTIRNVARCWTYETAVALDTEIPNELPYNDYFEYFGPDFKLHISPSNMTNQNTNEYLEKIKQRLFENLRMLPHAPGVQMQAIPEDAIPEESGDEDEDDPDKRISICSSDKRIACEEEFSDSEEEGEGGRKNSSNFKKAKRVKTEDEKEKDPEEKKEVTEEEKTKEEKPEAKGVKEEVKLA
# method: HDAC enzymatic assay, HDAC1
# Format: biochemical
# test_context: fluorogenic tetrapeptide RHKKAc substrate 10 μM; read-out: HDAC isoforms IC50 (nM), 1
IC50 values for the compounds below.

chemical_structure	IC50
O=C1CCC[C@@H](C(=O)N[C@@H](CCCCCS)C(=O)NCc2cccc(OCc3ccccc3)c2)N1	100 to 500 nM
O=C1NCCC[C@@H]1C(=O)N[C@@H](CCCCCS)C(=O)Nc1ccccc1	< 50 nM
O=C1CCC[C@@H](C(=O)N[C@@H](CCCCCS)C(=O)N2CCc3ccccc3C2)N1	100 to 500 nM

Noted for O=C1C[C@@H](C(=O)N[C@@H](CCCCCS)C(=O)Nc2ccccc2)N1 : its IC50 reads < 50 nM

Quick note, IC50 for O=C1CCC[C@@H](C(=O)N[C@@H](CCCCCS)C(=O)Nc2ccccc2)N1 landed at < 50 nM

Entry O=C1CCC[C@@H](C(=O)N[C@@H](CCCCCS)C(=O)NCc2ccc(C(F)(F)F)cc2)N1 — recorded IC50 = 100 to 500 nM

Noted for O=C1NC[C@@H](c2ccccc2)[C@H]1C(=O)N[C@@H](CCCCCS)C(=O)Nc1ccccc1 : its IC50 reads 50 to 100 nM

GET /value?item= O=C1NC[C@H](c2ccccc2)[C@H]1C(=O)N[C@@H](CCCCCS)C(=O)Nc1ccccc1 &field=IC50 returns 50 to 100 nM

The value of IC50 measured for the compound Cc1cccc(CCNC(=O)[C@H](CCCCCS)NC(=O)[C@@H]2CCCC(=O)N2)c1 turned out to be 50 to 100 nM

Per the record, O=C1NC[C@H](c2ccccc2)[C@@H]1C(=O)N[C@@H](CCCCCS)C(=O)Nc1ccccc1 has IC50 of < 50 nM
